Catalogue of variants with associated normalized RNA/DNA level without ligand (log10)
B1: library; a variant is named by its letters at N, in order (parent)
chain: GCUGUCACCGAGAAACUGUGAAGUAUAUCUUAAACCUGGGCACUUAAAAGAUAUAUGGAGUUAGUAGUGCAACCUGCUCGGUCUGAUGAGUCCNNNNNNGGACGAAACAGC

Variants of: B1
Experiment: normalized RNA/DNA level without ligand (relative to sTRSVctl = 100) (log10 (% of sTRSVctl)); HEK293T; ligand: cyclic di-GMP (c-di-GMP-II aptamer); higher = less ribozyme self-cleavage, higher mRNA level
Conditions: reporter: mCherry (pCS4076), ligand present: no
reported_property: normalized RNA/DNA level without ligand (log10)

- GGGACA: 1.7
- CAUCUC: 1.74
- AAGCUA: 1.56
- GCGAUU: 1.47
- UCGAUG: 1.54
- GUCUAC: 1.74
- CCCCCU: 1.7
- GUCGAG: 1.62
- ACACUU: 1.47
- GUUCUG: 1.67
- ACAGGG: 1.5
- GUCAAG: 1.57
- CCUAAA: 1.4
- GCUUGU: 1.58
- GAGAAA: 1.6
- CUUCUU: 1.59
- UUCACG: 1.8
- UUGGUG: 1.6
- CCAGGC: 1.64
- AGCUGG: 1.64
- AAAUGA: 1.43
- AUGAAC: 1.65
- UGGGAC: 1.7
- AUGAGA: 1.35
- GCGAGG: 1.61
- UGCUUG: 1.74
- AUCAAU: 1.64
- AUAUCU: 1.73
- AUUGCA: 1.67
- GCUAAU: 1.56
- UGCACC: 1.74
- CACGGU: 1.69
- UAUAGC: 1.73
- AAGAGC: 1.59
- UAUGGU: 1.57
- CGUGUA: 1.4
- CCUGUU: 1.67
- CCUCCG: 1.77
- CCGAUU: 1.54
- CUAGAG: 1.59
- GCACAG: 1.58
- CGCCCG: 1.76
- UUCUAU: 1.72
- GUAAAC: 1.57
- UGUGAA: 1.66
- CUACGC: 1.74
